Cited source: patent US20070265189A1

As shown below, each of these binders has a reported IGF-1R/IR comparison value.
Target entity: T1, Soluble IGF-1R (sIGF-1R), R&D Systems Cat. # 391-GR/CF (UniProt P08069 31-935, limits assumed)
T1 construct: extracellular domain
Run description: phage ELISA
Form: value (number only, do not type unit).

Record excerpt, results attached:
> print(dat)
                                      binder  recorded.number
 1   GVRAMSFYDALVSVLGLGPSG [20E2B-1-A6-IGFR]             16.8
 2   GNGDGMFYQLLSLLVGRDMHV [20E2B-3-02-IGFR]             13.8
 3  QSPVGSSHEDFYDWFFRQVAQSGAHQ [H2CA-3-D6-IGFR]                4
 4  RCEEKQAEVGPSSDPFYHKMSELLGCR [B6Hα-3-E9-IR]             14.2
 5  LGVTDGFYAALGYLIHGVGQF [20E2B-3-D11-IGFR]              7.6
 6  GAPVDQLHEDFYDWFVRQVSQAATG [H2CA-2-B2-IGFR]              3.5
 7  FRTLAAQHDSFYDWFDRQVSGAAGER [H2CA-3-C11-IGFR]              2.1
 8   VGTVAGFYDAIAQLVARASRV [20E2A-3-C7-IGFR]              5.1
 9  PPLASDLDVQFYGWFVQQVSPPGRGG [H2CA-2-B3-IGFR]              3.6
10    SQAGSAFYAWFDQVLRTVHSA [20E2Bβ-4-G6-IR]              3.3

Proceed to the following item.
response.value for DRDFCRFYERLTALVGGQVDGGWPC [20C-3-F6-IGFR] (field: IGF-1R/IR comparison) = 14.1
